Recorded values, source the array DNA melting data of Ke et al. (doi:10.1101/2024.01.08.574731).

The entries below are paired with their reported Tm.
Assay: melting temperature; fluorescence melt of hairpins on a sequencing array, two-state fit, raised by 9.35 °C to match UV melts
Details: sodium 0.088 M
I only need the number, in °C, no unit after it.

Consider the reported Tm for these sequences:
INSERT INTO results (macromolecule_sequence, recorded_metric, quantitative_result) VALUES
  ('GTCTAAGGAAACTCAGAC ((((.((....)).))))', 'Tm', 26.6),
  ('GTGGGAACGAAAGTTCAC (((..(((....))))))', 'Tm', 54.9),
  ('GCGTCGCGAAAGCGTTGC ((..(((....)))..))', 'Tm', 48.6),
  ('GAGATGGGAAACTATCTC (((((.(....).)))))', 'Tm', 40.7),
  ('GCAGAGCGAAAGCGTTGC (((..((....))..)))', 'Tm', 62);

Report Tm for GAATATGGAAACGTATTC (((((.(....).))))) please.
34.2

Lookup GATCGCTTCTGCGATC ((((((....))))))
68.3

Lookup GGACTGGGAAACCGGTCC ((((.((....)).))))
58.6

Lookup GGAATGCGAAAGCAATCC (((.(((....))).)))
50.9

Lookup GGCAGGTCGAAAGACGCC (((..(((....))))))
53.5

Lookup GAATGGGGAAACTCATTC (((((.(....).)))))
40.1

Lookup AGCTAGAAATAGCT (((((....)))))
41.3

###

Experiment: folding enthalpy; higher = less favourable; fluorescence melt of hairpins on a sequencing array, two-state fit
Settings: sodium 0.088 M
The threshold is inclusive: folding enthalpy of exactly -20 kcal/mol counts as Met; values below receive Not met.

Past entries and their recorded results:
INSERT INTO results (macromolecule_sequence, discrete_label) VALUES
  ('GATTTGCGAAAGCAGATC (((.(((....))).)))', 'Not met'),
  ('GCGGGCGAAAGCCCACGC ((((((....)))..)))', 'Met'),
  ('GGTCGAGGAAACTCAACC (((.(((....))).)))', 'Not met'),
  ('GCCTCCGAAAGGAAGGGC ((((((....)))..)))', 'Not met');

Could you now look at the following sequence, please?
Hi, just wondering whether GGTCGGCGAAAGCCCACC (((.(((....))).))) shows folding enthalpy of -20 kcal/mol or higher.
Not met

###

Test: melting temperature; fluorescence melt of hairpins on a sequencing array, two-state fit, raised by 9.35 °C to match UV melts
Details: sodium 0.088 M
recorded-metric: Tm (°C)
I only need the number, in °C, no unit after it.

Consider the reported Tm for these sequences:
INSERT INTO assay_data (macromolecule_sequence, recorded_metric, quantitative_result) VALUES
  ('GGTAGCCGAAAGGCAACC (((.(((....))).)))', 'Tm', 57.9),
  ('GCAAGCGAAAGCTGTTGC ((((((....)))..)))', 'Tm', 45.9),
  ('GCGTGTGCGAAAGCACGC (((..(((....))))))', 'Tm', 57.5),
  ('GAGTACGAAAGTATACTC ((((((....)))..)))', 'Tm', 34.4),
  ('GCACGGCGAAAGCGATGC (((..((....))..)))', 'Tm', 47.2);

Report Tm for GATCGTGGGTACGATC ((((((....)))))) please.
55.3

Lookup GAGAGCGGAAACGCTTTC ((.((((....)))).))
46.4

Lookup GAGCGTGGAAACGCGTTC ((.((.(....).)).))
51.7

Lookup GTCGCGGGAAACTGCGGC (.(((.(....).))).)
54.7

Lookup GCGCCAGGAAACCGGCAC (.(((.(....).))).)
37.4

Lookup GTGAGCGAAAGCTAACAC ((((((....)))..)))
44

Lookup GTGTGCGAAAGCAGACAC ((((((....)))..)))
53.2

Lookup GATCAGGCGACTGATC ((((((....))))))
56.4

Lookup GCCCGGCGAAAGCCTCGC ((..(((....)))..))
27.3

Lookup GCTGGGCGAAAGCACGGC ((.(.((....)).).))
69.1

Lookup GATCACTGGTGTGATC ((((((....))))))
58

Lookup GATACCGAAAGGTTAATC ((((((....)))..)))
25.3

###

Experiment: melting temperature; fluorescence melt of hairpins on a sequencing array, two-state fit, raised by 9.35 °C to match UV melts
Settings: sodium 0.088 M
recorded-metric: Tm

Consider the reported Tm for these sequences:
INSERT INTO assay_data (macromolecule_sequence, result) VALUES
  ('GATCACTAATGTGATC ((((((....))))))', '55.1 °C'),
  ('GCCAGCGGAAACGCCGGC (((.(((....))).)))', '57.1 °C'),
  ('GTCACGCGAAAGCGCGAC (((.(((....))).)))', '58.9 °C');

Report Tm for GATCCCGTTTGGGATC ((((((....)))))) please.
63.6 °C

Lookup CGTGACGGAAACGTTACG (((.(((....))).)))
52.2 °C

Lookup GATCATGAAGATGATC ((((((....))))))
50.3 °C

Lookup GGGATTGGAAACAGTCCC ((((.((....)).))))
48.8 °C

Lookup GATCCCTCTGGGATC ((((((...))))))
66.6 °C

Lookup GCGATCCGTCGC ((((....))))
51.6 °C

Lookup GATCGTTAGTACGATC ((((((....))))))
53.2 °C

Lookup GTATAAACGAAAGTTTAC (((..(((....))))))
29.4 °C

###

Experiment: folding enthalpy; higher = less favourable; fluorescence melt of hairpins on a sequencing array, two-state fit
Details: sodium 0.088 M
The threshold is inclusive: folding enthalpy of exactly -100 kJ/mol counts as t; values below receive f.

Hi, just wondering whether GATCACTAAGTGATC ((((((...)))))) shows folding enthalpy of -100 kJ/mol or higher.
f

Lookup GCTATGCGAAAGCCAAGC (((..((....))..)))
t

Lookup GATCAGCGTTCTGATC ((((((....))))))
f

Lookup GGGATCGAAAGATCACCC ((((((....)))..)))
t

Lookup GATCTCCGAAAGGATATC (((.(((....))).)))
f

Lookup GATCCAGAATGGATC ((((((...))))))
f

Lookup GCCCCTCGAAAGAGAGGC (((.(((....))).)))
f

Lookup GATTGCGGAAACACAATC (((((.(....).)))))
f

Lookup GATATGGGAAACCATGTC ((.((((....)))).))
f

Lookup CGCGGACTTCTCCGCG ((((((....))))))
f

Lookup GATCAGGGCTCTGATC ((((((....))))))
f

###

Experiment: folding enthalpy; higher = less favourable; fluorescence melt of hairpins on a sequencing array, two-state fit
Conditions: sodium 0.088 M
The threshold is inclusive: folding enthalpy of exactly -20 kcal/mol counts as YES; values below receive NO.

Hi, just wondering whether GATCAGTTTCCTGATC ((((((....)))))) shows folding enthalpy of -20 kcal/mol or higher.
NO

Lookup GATCCTGATGAGGATC ((((((....))))))
NO

Lookup GATCTCACGCGAGATC ((((((....))))))
NO

Lookup GATCAACTAGTTGATC ((((((....))))))
NO

Lookup GATCTTAATGAAGATC ((((((....))))))
NO

Lookup CCACAGAAATGTGG (((((....)))))
YES

Lookup GAGTGAGAAATCACTC ((((((....))))))
NO

Lookup GCGGGCTCCCGC ((((....))))
NO

Lookup GCCAAGCGAAAGCTTCGC ((.((((....)))).))
YES

Lookup CGTCGCGGAAACGCAACG (((.(((....))).)))
NO

Lookup GTAGAGCGAAAGCTATAC (((.(((....))).)))
NO

Lookup GAAAATGCGAAAGCATTC (((..(((....))))))
YES

###

The entries below are paired with their reported folding enthalpy.
Assay: folding enthalpy; higher = less favourable; fluorescence melt of hairpins on a sequencing array, two-state fit
Details: sodium 0.088 M

Consider the reported folding enthalpy for these sequences:
INSERT INTO measurements (macromolecule_sequence, recorded_metric, result) VALUES
  ('GCGTCTGGAAACAAACGC ((((.((....)).))))', 'folding enthalpy', '-32.2 kcal/mol'),
  ('GATCCAAAGGTGGATC ((((((....))))))', 'folding enthalpy', '-26.1 kcal/mol'),
  ('GTGCGAGGAAACTTGCAC ((((.((....)).))))', 'folding enthalpy', '-54 kcal/mol');

Report folding enthalpy for GTTTGCGGAAACGTAGAC ((.(.((....)).).)) please.
-20.5 kcal/mol

Lookup GCAGCCGAAAGGCTTGC ((((((....))).)))
-15.3 kcal/mol

Lookup GTCGCAGGAAACCGCAAC ((.((.(....).)).))
-12.8 kcal/mol
